Biological target: Toll-like receptor 4 (Mus musculus)
Experiment: Inhibition of LPS-induced TLR4 activation in mouse RAW264.7 cells assessed as reduction in NO production after 18 to 24 hrs
pIC50: −log10 of the molar value.
pIC50 values by entry
RESULT TYPE: pIC50

1. CCOc1ccc(OCC(O)CN(C)Cc2c(C)nn(Cc3ccccc3F)c2C)cc1 (racemic)
4.32
2. Cc1nn(Cc2ccccc2C(F)(F)F)c(C)c1CN(C)CC(O)COc1ccc(C(F)(F)F)cc1 (racemic)
4.56
3. C=CCOc1ccc(OCC(O)CN(C)Cc2c(C)nn(Cc3ccccc3C=C)c2C)cc1 (racemic)
4.64

###

Target: Toll-like receptor 4 (Mus musculus, UniProt Q9QUK6)
Sequence (Q9QUK6 whole entry): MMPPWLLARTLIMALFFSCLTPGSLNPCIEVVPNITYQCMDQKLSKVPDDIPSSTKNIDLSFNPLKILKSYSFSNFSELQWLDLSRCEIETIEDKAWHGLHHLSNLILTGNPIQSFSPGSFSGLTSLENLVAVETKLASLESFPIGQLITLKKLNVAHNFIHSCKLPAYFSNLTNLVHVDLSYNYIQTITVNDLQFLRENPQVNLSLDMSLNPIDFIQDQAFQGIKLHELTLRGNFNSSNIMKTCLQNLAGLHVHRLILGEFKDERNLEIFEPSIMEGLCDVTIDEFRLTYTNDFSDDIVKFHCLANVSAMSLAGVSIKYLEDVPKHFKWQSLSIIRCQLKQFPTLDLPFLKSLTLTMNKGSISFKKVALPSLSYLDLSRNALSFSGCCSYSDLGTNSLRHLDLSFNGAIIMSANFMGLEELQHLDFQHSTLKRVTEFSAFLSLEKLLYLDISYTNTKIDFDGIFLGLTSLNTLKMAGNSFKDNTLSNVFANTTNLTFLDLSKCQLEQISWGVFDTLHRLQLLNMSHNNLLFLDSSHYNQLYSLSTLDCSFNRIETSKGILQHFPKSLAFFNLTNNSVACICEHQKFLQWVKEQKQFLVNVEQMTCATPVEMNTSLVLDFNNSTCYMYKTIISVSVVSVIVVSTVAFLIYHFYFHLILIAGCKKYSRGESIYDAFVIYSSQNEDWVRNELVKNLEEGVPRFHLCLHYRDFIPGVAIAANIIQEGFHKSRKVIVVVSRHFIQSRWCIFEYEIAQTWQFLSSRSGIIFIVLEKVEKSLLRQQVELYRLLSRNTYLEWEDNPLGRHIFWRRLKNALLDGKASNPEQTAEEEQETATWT
Test: Inhibition of LPS-induced TLR4 activation in mouse RAW264.7 cells assessed as reduction in NO production after 18 to 24 hrs
IC50 values by entry
RESULT TYPE: IC50

1. CCOc1ccc(OC[C@@H](O)CN(C)Cc2c(C)nn(Cc3ccccc3Cl)c2C)cc1
24.3 µM
2. CCOc1ccc(OC[C@H](O)CN(C)Cc2c(C)nn(Cc3ccccc3Cl)c2C)cc1
24.8 µM
3. Cc1nn(Cc2ccccc2)c(C)c1CN(C)CC(O)COc1ccccc1 (racemic)
> 100 µM
4. CCOc1ccc(OCC(O)CN(C)Cc2c(C)nn(Cc3cccc(Cl)c3)c2C)cc1 (racemic)
16.5 µM
5. CCOc1ccc(OCC(O)CN(C)Cc2c(C)nn(Cc3ccccc3OC)c2C)cc1 (racemic)
> 100 µM
6. Cc1nn(Cc2ccccc2Cl)c(C)c1CN(C)CC(O)COc1ccccc1 (racemic)
64.3 µM
7. CCOc1ccc(OCC(O)CN(C)Cc2c(C)nn(Cc3ccccc3)c2C)cc1 (racemic)
51.8 µM
8. CCOc1ccc(OCC(O)CN(C)Cc2c(C)nn(Cc3ccccc3C)c2C)cc1 (racemic)
47.7 µM
9. Cc1nn(Cc2ccccc2Cl)c(C)c1CN(C)C[C@H](O)COc1ccc(Cl)cc1
15.6 µM
10. CCOc1ccc(OCC(O)CN(C)Cc2c(C)nn(Cc3ccc(OC)cc3)c2C)cc1 (racemic)
67.6 µM
11. CCOc1ccc(OCC(O)CN(C)Cc2c(C)nn(Cc3ccccc3C(F)(F)F)c2C)cc1 (racemic)
32.1 µM
12. COCCc1ccc(OCC(O)CN(C)Cc2c(C)nn(Cc3ccccc3Cl)c2C)cc1 (racemic)
57.3 µM
13. C=CCOc1ccc(OCC(O)CN(C)Cc2c(C)nn(Cc3ccccc3Cl)c2C)cc1 (racemic)
44.6 µM
14. Cc1nn(Cc2ccccc2Cl)c(C)c1CN(C)CC(O)COc1ccc(C#N)cc1 (racemic)
52.7 µM
15. Cc1nn(Cc2ccccc2Cl)c(C)c1CN(C)CC(O)COc1ccc(Cl)cc1 (racemic)
16.1 µM
16. Cc1nn(Cc2ccccc2Cl)c(C)c1CN(C)CC(O)COc1ccc(C(F)(F)F)cc1 (racemic)
23.7 µM
17. CCOc1ccc(OCC(O)CN(C)Cc2c(C)nn(Cc3ccccc3Cl)c2C)cc1 (racemic)
27.8 µM
18. CCOc1ccc(OCC(CN(C)Cc2c(C)nn(Cc3ccccc3Cl)c2C)OC)cc1 (racemic)
19.8 µM
19. Cc1nn(Cc2ccccc2Cl)c(C)c1CN(C)C[C@@H](O)COc1ccc(Cl)cc1
15.5 µM

###

Test system: Blood
Test: Cytotoxicity against human whole blood assessed as hemolysis at 1 mM
Assay type: tissue-based
Conditions: 1000 µM
RESULT TYPE: Activity

1) C=CCOc1ccc(OCC(O)CN(C)Cc2c(C)nn(Cc3ccccc3C=C)c2C)cc1 (racemic)
Non-toxic
2) CCOc1ccc(OCC(O)CN(C)Cc2c(C)nn(Cc3ccc(Cl)c(Cl)c3)c2C)cc1 (racemic)
Non-toxic
3) C=Cc1ccccc1Cn1nc(C)c(CN(C)CC(O)COc2ccc(OCC)cc2)c1C (racemic)
Non-toxic
